# Tested on: SNB-19 CNS
# PROTOCOL DETAILS: NCI tumour cell line growth inhibition, 48 h; in the data active means GI50 below about 0.43 µM; inactive means the rest
Possible outcomes: Y = active, N = inactive

- COMPOUND: "Nc1ccccc1C#C/C=C\\C#Cc1ccccc1C(F)(F)F"
  ASSIGNED CATEGORY: "N"
- COMPOUND: "NC(=O)c1cnc(N[C@@H]2CCCC[C@@H]2N)nc1Nc1cccc(-n2nccn2)c1"
  ASSIGNED CATEGORY: "N"
- COMPOUND: "CC[C@]1(O)CC2CN(CCc3c([nH]c4ccccc34)[C@@](C(=O)OC)(c3cc4c(cc3OC)N(C)[C@H]3[C@@](O)(C(=O)OC)[C@H](OC(C)=O)[C@]5(CC)C=CCN6CC[C@]43[C@@H]65)C2)C1 (some centres undefined)"
  ASSIGNED CATEGORY: "Y"
- COMPOUND: "Cc1ccc2c(c1)nc(C(=O)c1ccco1)c(C(F)(F)F)[n+]2[O-]"
  ASSIGNED CATEGORY: "N"

###

# System: A498 renal
# PROTOCOL DETAILS: NCI tumour cell line growth inhibition, 48 h
Items are presented alongside their recorded TGI.

- COMPOUND: "COC(=O)C(CCS(=O)(=O)CC(=O)C(=O)Nc1cccc(C(C)=O)c1)C(=O)OC"
  TGI: "> 100 µM"
- COMPOUND: "S=c1oc(CCCCCCCCc2nn(CNc3ccc(Cl)cc3)c(=S)o2)nn1CNc1ccc(Cl)cc1"
  TGI: "> 100 µM"
- COMPOUND: "Clc1ccc(Cl)c2[s+]snc12"
  TGI: "> 100 µM"
- COMPOUND: "CC(C)(C)N1CCC1C(N)=O (stereo unspecified)"
  TGI: "> 100 µM"
- COMPOUND: "CCO[C@@H]1OC(=O)[C@](C)(C(C)=O)[C@@H]1C"
  TGI: "> 100 µM"
- COMPOUND: "C=C1CC(Cn2cc(Br)c(=O)[nH]c2=O)(c2ccc(Br)cc2)OC1=O (stereo unspecified)"
  TGI: "10.2 µM"
- COMPOUND: "Cn1c(=O)[nH]n(-c2ccc3ccccc3c2)c1=O"
  TGI: "> 100 µM"
- COMPOUND: "COP(=O)(OC)C(NC(c1ccccc1)c1ccccc1)c1ccc2c(c1)OCO2 (stereo unspecified)"
  TGI: "44.2 µM"
- COMPOUND: "CC(=O)OCC1(CNc2nc(N)ncc2C#N)CC(CCc2ccccc2)C1 (stereo unspecified)"
  TGI: "> 100 µM"
- COMPOUND: "O=C1/C(=C(/Br)I)c2ccccc2-c2ccccc21"
  TGI: "30.2 µM"
- COMPOUND: "COc1ccc(C=C2C(=O)OC(C)(C)OC2=O)cc1OC"
  TGI: "> 100 µM"

###

Items are presented alongside their recorded TGI.
# System: RPMI-8226 leukemia
# PROTOCOL DETAILS: NCI tumour cell line growth inhibition, 48 h
Where a SMILES comes first, the peptide text is derived from it.

- COMPOUND: "COc1ccc(-c2cc(-c3ccc(OC)c(OC)c3)nc(SCCCC(=O)NO)n2)cc1"
  TGI: "6.21 µM"
- COMPOUND: "CCC(C)C(NC(=O)C1CCCN1)C(=O)NC(C(=O)NCC(=O)NC(CC(N)=O)C(=O)NC(CC(C)C)C(=O)NC(CC(C)C)C(=O)NC(CCCCN)C(N)=O)C(C)C (stereo not given) (H-PIVGNLLK-NH2; configuration not given here)"
  TGI: "> 75 µM"
- COMPOUND: "CC1=C(/C=C/C(C)=C\\C=C\\C(C)=C\\C(=O)Nc2ccc3c(c2)OCO3)C(C)(C)CCC1"
  TGI: "> 100 µM"
- COMPOUND: "[N-]=[N+]=NC(c1cn(C2CC(O)C(CO)O2)c(=O)[nH]c1=O)C(Br)I (stereo not given)"
  TGI: "> 100 µM"
- COMPOUND: "Cc1sc2nc3n(sc4nc5sc(C)c(C)c5c(=O)n43)c(=O)c2c1C"
  TGI: "> 100 µM"
- COMPOUND: "CC(CN(CP(=O)([O-])[O-])CP(=O)([O-])[O-])N(CP(=O)([O-])[O-])CP(=O)([O-])[O-].N.N.[Pt+2] (stereo not given)"
  TGI: "> 100 µM"
- COMPOUND: "COc1ccc2c3c([nH]c2c1)-c1nc2ccccc2c(=O)n1CC3"
  TGI: "> 25 µM"
- COMPOUND: "O=C1Sc2cc3ccccc3cc2C(=O)Sc2cc3ccccc3cc21"
  TGI: "> 24.6 µM"
- COMPOUND: "Cc1ccc(C(=O)NN=C(/N=N/c2cccc(C)c2)c2ccc(N(C)C)cc2)cc1"
  TGI: "> 100 µM"
- COMPOUND: "CC(=O)Nc1ccc(/C=C/[N+](=O)[O-])cc1"
  TGI: "4.73 µM"
- COMPOUND: "CCOc1ccc(N=Cc2cccc3cccnc23)cc1"
  TGI: "> 100 µM"
- COMPOUND: "N#CC(=S)Nc1cccc(Cl)c1"
  TGI: "61.4 µM"
- COMPOUND: "COc1ccc(C[C@H]2COC(=O)[C@@H]2Cc2ccccc2)cc1OC"
  TGI: "> 100 µM"
- COMPOUND: "Nc1cc2ncnc(Nc3cccc(Br)c3)c2cn1"
  TGI: "> 100 µM"
- COMPOUND: "CC(=O)Nc1nc(C)c(S(=O)(=O)NC(=O)N2c3ccccc3CCc3ccccc32)s1"
  TGI: "> 100 µM"

Where do the numbers come from? From PubChem BioAssay (NCI).
